These data points were gathered from PubChem BioAssay.

Please respond with reported activity for every item in the list.
- test-target: Tumor necrosis factor receptor superfamily member 10B (Homo sapiens)
- assay-summary: caspase-8 TRAIL sensitization, hit retest, confirmation, cell-based, NB7+caspase-8, with/without TRAIL, luminescence panel (AID 651596)
- reported-conditions: NB7 neuroblastoma + caspase-8, TRAIL sensitization, luminescence viability, with TRAIL, mean of runs, at 10 µM, stronger effect = higher value
One number for each entry, in %.

COc1cc(NC(=O)c2c(F)c(F)c(F)c(F)c2F)c(OC)cc1Cl    85.1
CCCCCc1cc(=O)oc2c(C(CCN(CC)CC)c3cc(OC)c(OC)c(OC)c3)c(OC)cc(OC)c12 (stereo unspecified)    52.9
O=C(Nc1ccc(NC(=O)c2ccccc2F)cn1)c1ccco1    66.8
O=C1C(=Cc2ccc(Cl)cc2)CCc2ccccc21    85.8

Here are 7 molecules. What values of activity were reported for them?
1. Cc1cccc2nc(=S)n(C(=O)c3ccco3)n12
2. COc1ccc(-c2ccc3c(c2)S(=O)(=O)c2cccc(C(=O)NCCOc4ccccc4Cl)c2C3=O)cc1OC
3. Cc1ccc2nc(-c3ccncc3)cc(C(=O)Nc3ccncc3)c2c1
4. COc1ccc(/C=C/C(=O)NC(=S)Nc2ccccn2)cc1
5. CN(C)c1ccc(-c2nc3ccccc3n2C)cc1
6. Cc1cccc(NC(=S)NC(=O)c2ccc(-c3ccccc3)cc2)n1
7. Clc1ccc(-n2ncc3c(N4CCCC4)ncnc32)cc1

54.6
91.2
19.9
29
92.3
55.5
66.2

====

- test-target: Tumor necrosis factor receptor superfamily member 10B (Homo sapiens) (UniProt O14763)
- Sequence (O14763 whole entry, looked up): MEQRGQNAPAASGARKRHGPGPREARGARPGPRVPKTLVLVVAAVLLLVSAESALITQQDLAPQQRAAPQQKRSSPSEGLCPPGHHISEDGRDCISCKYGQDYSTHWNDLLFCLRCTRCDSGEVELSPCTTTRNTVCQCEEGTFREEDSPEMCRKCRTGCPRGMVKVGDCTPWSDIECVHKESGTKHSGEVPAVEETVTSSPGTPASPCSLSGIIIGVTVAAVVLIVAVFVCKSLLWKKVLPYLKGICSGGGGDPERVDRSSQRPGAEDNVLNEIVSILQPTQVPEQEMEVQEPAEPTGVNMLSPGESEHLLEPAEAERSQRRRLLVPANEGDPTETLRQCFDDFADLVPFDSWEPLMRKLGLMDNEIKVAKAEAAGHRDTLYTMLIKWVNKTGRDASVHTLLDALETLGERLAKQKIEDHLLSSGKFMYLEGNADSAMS
- assay-summary: caspase-8 TRAIL sensitization, hit retest, confirmation, cell-based, NB7+caspase-8, with/without TRAIL, luminescence panel (AID 651596)
- reported-conditions: NB7 neuroblastoma + caspase-8, TRAIL sensitization, luminescence viability, with TRAIL, mean of runs, at 10 µM, stronger effect = higher value
Assignment: determine reported activity for the given compounds.
One number for each entry, in %.

Please go through the list and note activity for each compound.
1. NC(Cc1ccc(C(F)(F)F)cc1)c1csc(Nc2nncc3ccccc23)n1 (stereo not drawn)
2. CCOC(=O)c1cn(-c2ccc(F)c(F)c2F)c2c(F)c(F)c(F)cc2c1=O

[38.8, 64]

Hi team, please reply with activity for each item in this list.
1. CCc1nnc(NC(=O)c2nc(S(=O)(=O)Cc3ccccc3)ncc2Cl)s1
2. CCCCOc1ccc(-c2nc(=S)[nH][nH]2)cc1
3. CN1CCN(CCCNC(=O)c2ccc(/C=C3\Oc4ccccc4N(Cc4ccc(Cl)cc4)C3=O)cc2)CC1
4. CCN(CC)S(=O)(=O)c1cccc(NC(=O)Nc2cccc(C(F)(F)F)c2)c1

95.4
67.1
41.5
78.2

Take each entry in turn and give its activity.
1. Cc1cccc(NC(=S)N/N=C/c2ccc([N+](=O)[O-])s2)c1
2. CN1/C(=C\C(=O)c2cccs2)Sc2ccccc21
3. O=C(Nc1ccc(N2CCCCC2)cc1)c1ccccc1
4. O=C(N/N=C/c1ccc(Br)s1)c1ccccn1
5. Cc1ccc(NC(=O)COc2ccccc2[N+](=O)[O-])nc1
6. CC(OC(=O)c1cc(O)c2ccccc2c1O)C(=O)Nc1ccc(C(N)=O)cc1 (stereo not drawn)
7. O=C(N/N=C/c1cccnc1)c1ccc2c(c1)OCO2

[37.4, 63, 69.6, 44.5, 60.5, 49.5, 51.9]
